Measured GI50 accompanies every entry in the list below.
tested on: K562; experiment: NCI tumour cell line growth inhibition, 48 h
Active and inactive are the calls of the source. No stated cut-off is given here; in the data, active = GI50 up to about 1.1 µM and inactive = higher.

// below: answered compounds
COc1ccc(C(=O)/C=C/c2ccc(OCC#N)cc2)cc1OC: 5.52 µM (inactive)
Oc1ccccc1/C=C/c1csnn1: > 100 µM (inactive)
O=C(/C=C/c1ccc(-c2ccccc2[N+](=O)[O-])o1)NCc1ccc(C(=O)NCCc2ccccc2)cc1: > 100 µM (inactive)
O=P(NC12CC3CC(CC(C3)C1)C2)(N1CC1)N1CC1: 37.6 µM (inactive)

Kindly review the next compound as well.
Inquiry: Endpoint output: GI50 of Nc1ccc(S(=O)(=O)c2ccc(/N=[N+](\[O-])c3ccc(S(=O)(=O)c4ccc(N)cc4)cc3)cc2)cc1 . Value?
Reply text: > 100 µM (inactive)

###

Measured GI50 accompanies every entry in the list below.
tested on: HCC 2998; experiment: NCI tumour cell line growth inhibition, 48 h
Calls of active or inactive are those of the source. Cut-off read from the data, not from the text of the source: active = GI50 up to about 1.1 µM and inactive = higher.

NS(=O)(=O)c1nnc(NC(=O)Nc2ccc(Cl)c(Cl)c2)s1: 18.7 µM (inactive)
Cc1nc2ccc(Br)cc2c(=O)n1-c1ccc(N)cc1: > 100 µM (inactive)
O=[N+]([O-])c1ccc(CSc2nncc3[nH]cnc23)cc1: > 100 µM (inactive)
COc1cc(C(=O)Oc2ccc3c(c2)OCO3)cc(OC)c1OC: > 100 µM (inactive)

Inquiry: Endpoint output: GI50 of COc1ccc(C(=O)/C=C/c2ccc(OCC#N)cc2)cc1OC . Value?
Reply text: 18.2 µM (inactive)

Inquiry: Endpoint output: GI50 of N#Cc1c(-c2ccc(Cl)c(Cl)c2)c(-c2ccc(Cl)c(Cl)c2)nn(CC(=O)O)c1=O . Value?
Reply text: 52.2 µM (inactive)

Inquiry: Endpoint output: GI50 of Cc1no[n+]([O-])c1/C=N/NS(=O)(=O)c1ccccc1 . Value?
Reply text: > 100 µM (inactive)

Inquiry: Endpoint output: GI50 of COc1cc(OC)cc(-n2c(N)c(C#N)c3ccc([N+](=O)[O-])cc3c2=O)c1 . Value?
Reply text: 84.1 µM (inactive)

Inquiry: Endpoint output: GI50 of Cc1ccc(C2CC(=O)CC(c3ccc(C)cc3)C23C(=O)NC(=O)NC3=O)cc1 (centres undefined) . Value?
Reply text: > 100 µM (inactive)

###

test system: EKVX; assay: NCI tumour cell line growth inhibition, 48 h
Active and inactive are the calls of the source. Cut-off read from the data, not from the text of the source: active = GI50 up to about 1.1 µM and inactive = higher.
Measured GI50 accompanies every entry in the list below.

// below: answered compounds
COc1ccc(-c2cc(O)c3ccc(F)cc3n2)cc1: > 100 µM (inactive)
C[N+]1(C)[C@@H]2CC[C@H]1C[C@@H](OC(=O)C(CO)c1ccccc1)C2 (stereo not given in full) [ATROPINE METHYLBROMIDE]: > 100 µM (inactive)
O=[N+]([O-])c1ccc(CSc2nncc3[nH]cnc23)cc1: > 100 µM (inactive)
O=C(C=P(c1ccccc1)(c1ccccc1)c1ccccc1)c1ccc(-c2cccc([N+](=O)[O-])c2)s1: 57.7 µM (inactive)

Kindly review the next compound as well.
Inquiry: Hello, I am looking for reported GI50 with EKVX for CON(C(=O)OC(C)(C)C)c1ccccc1 . Could you help?
Reply text: > 100 µM (inactive)

###

tested on: SNB-78; assay: NCI tumour cell line growth inhibition, 48 h
Calls of active or inactive are those of the source. Rule as the data show it: active = GI50 up to about 1.1 µM and inactive = higher.
Lab note: assign the record to one of active, inactive

O/N=C1/C(=C/c2ccc(Cl)c(Cl)c2)CCCC1C(NO)c1ccc(Cl)c(Cl)c1 (stereo unspecified): inactive
COc1ccc(/N=N/c2c(-c3ccccc3)nn(C(=O)CC(=O)Nc3ccc(OC)cc3)c2-c2ccccc2)cc1: inactive
COc1cc2c(cc1OC(=O)CC(C)O)C1C(OC2=O)C(OC(C)=O)C=C2CCN(C)[C@H]21 (stereo partly specified): inactive
NC(=O)OCC(COc1ccc(Cl)cc1)OC(=O)c1ccccc1Cl (stereo unspecified): inactive
CCC(CC)n1cc(C(=O)NC(=O)NCCCCCOC(=O)CCCCCCCCCCC(=O)OCCCCCNC(=O)NC(=O)c2cn(C(CC)CC)c(=O)[nH]c2=O)c(=O)[nH]c1=O: inactive
Nc1nc(N)c2cc(CNc3ccc(C(=O)NC(CC(=O)O)C(=O)O)c(Cl)c3)ccc2n1 (stereo unspecified): inactive
S=C(Nc1ccccc1)Nc1[nH]c(=S)sc1-c1nc2ccccc2[nH]1: inactive
COc1ccccc1/C=C/C(=O)c1sc(-c2cccnc2)nc1C: inactive

Inquiry: Which outcome did this test record for the molecule CCCCCC(O)(CCCCC)CCCCCCCCC1=C(O)C(=O)c2ccc(=O)[nH]c2C1=O ?
Reply text: inactive

Inquiry: Which outcome did this test record for the molecule C/C(CC(=O)Nc1ccccc1C)=N/NS(=O)(=O)c1ccc(C)cc1 ?
Reply text: inactive

Inquiry: Which outcome did this test record for the molecule C=C1C(O)C2(O)OCC34C(CC5C(C)=CC(=O)C(O)C5(C)C23)OC(=O)C(OC(=O)C/C=C(\C)CCCCC)C14 (stereo unspecified) ?
Reply text: active

###

Measured GI50 accompanies every entry in the list below.
tested on: OVCAR-3; assay: NCI tumour cell line growth inhibition, 48 h
Calls of active or inactive are those of the source. No stated cut-off is given here; in the data, active = GI50 up to about 1.1 µM and inactive = higher.

// below: answered compounds
CC(C)(C)[Si](C)(C)OCC1OC(n2cc(I)c(N)nc2=O)C(O[Si](C)(C)C(C)(C)C)C1O[Si](C)(C)C(C)(C)C (stereo not given): 10.5 µM (inactive)
CCN(CC)C(=S)SS(=O)(=O)c1ccccc1[N+](=O)[O-]: 22.2 µM (inactive)
O=c1c2cc(I)ccc2nc(Sc2ccc([N+](=O)[O-])cc2[N+](=O)[O-])n1Cc1ccccc1: 1.9 µM (inactive)
COC(=O)C1=C(O)C(C(=O)OC)[C@]2(O)[C@H](C(=O)OC)[C@H]1C[C@@H](c1ccc(F)cc1)[C@H]2C(=O)OC (stereo not given in full): 11.1 µM (inactive)
Cc1nc(-n2nc(-c3ccccc3)cc2-c2ccccc2)sc1C(=O)/C=C/c1ccc([N+](=O)[O-])cc1: 10.4 µM (inactive)

Kindly review the next compound as well.
Inquiry: Hello, I am looking for reported GI50 with OVCAR-3 for O=C(NC(=S)Nc1ccc(Br)cc1)c1ccc2c(c1)Sc1ccccc1S2 . Could you help?
Reply text: 20.3 µM (inactive)

###

test system: SF-295; assay: NCI tumour cell line growth inhibition, 48 h
Activity calls are given as the source filed them. No stated cut-off is given here; in the data, active = GI50 up to about 1.1 µM and inactive = higher.
Lab note: assign the record to one of 1 = active, 0 = inactive

Record excerpt, results attached:
N=C(N)SCc1ccc(Cl)c2ccccc12.O=[N+]([O-])c1ccc(O)c([N+](=O)[O-])c1: 0
COc1cc(/C=C2/SC(c3ccccc3)N(c3cccc(NC(C)=O)c3)C2=O)cc(OC)c1OC (stereo unspecified): 0
CC(C)SC(=S)Sc1c(Cl)c(Cl)nc(Cl)c1Cl: 0

Inquiry: Which outcome did this test record for the compound CCOC(=O)c1c(N)n(-c2ccccc2)c(=O)n(-c2ccccc2)c1=O ?
Reply text: 0

Inquiry: Which outcome did this test record for the compound CCCCc1c(OC)cc(O)c2c1C(=O)c1[nH]c(C(=O)O)c(O)c(=O)c1C2=O ?
Reply text: 0

Inquiry: Which outcome did this test record for the compound CC(C)(C)[C@H]1CC[C@@](O)(c2ccccc2)CC1.CC(C)(C)[C@H]1CC[C@](O)(c2ccccc2)CC1 ?
Reply text: 0

Inquiry: Which outcome did this test record for the compound CCCCCCCCNC(=O)C1=C(C)NC(C)=C(C(=O)NCCCCCCCC)C1 ?
Reply text: 0

Inquiry: Which outcome did this test record for the compound NNC(=O)C(=O)N/N=C1\CCC(=O)CC1C(=O)CCC(=O)Nc1ccc(Cl)cc1 (stereo unspecified) ?
Reply text: 0

###

tested on: HCT-15
Measured log10 GI50 accompanies every entry in the list below.
// units: µM (pre-log); metric: GI50; scale: log10

// below: answered compounds
CC1(C)[C@H]2CC[C@](C)(C2)[C@]1(S)Cc1ccccn1: 1.62
c1ccc(CNC2CC(NCc3ccccn3)CC(NCc3ccccn3)C2)nc1 (stereo not given): 0.62

Inquiry: Endpoint output: log10 GI50 of C[C@H]1CC(=O)[C@@]2(O)C#C/C=C\C#C[C@@H]3Nc4c(cc(O)c5c4C(=O)c4ccccc4C5=O)[C@]24O[C@]314 . Value?
Reply text: -1.61

Inquiry: Endpoint output: log10 GI50 of COc1ccc2cc1Oc1ccc(cc1)CC1c3c(cc(OC)c4c3Oc3cc5c(cc3O4)CCNC5C2)CCN1C (stereo not given) . Value?
Reply text: 0.25

Inquiry: Endpoint output: log10 GI50 of COc1cc(/C=N/c2ccc(S(N)(=O)=O)cc2)cc(OC)c1 . Value?
Reply text: 1.47

Inquiry: Endpoint output: log10 GI50 of Cc1ccc(S(=O)(=O)N(CC(O)COc2ccccc2)c2ccc(F)cc2F)cc1 (stereo not given) . Value?
Reply text: 1.23

Inquiry: Endpoint output: log10 GI50 of O=C(CC(=O)c1cccc([N+](=O)[O-])c1)C(=O)Nc1nc([N+](=O)[O-])cs1 . Value?
Reply text: 1.90

Inquiry: Endpoint output: log10 GI50 of O=P1(N(CCCl)CCCl)Oc2ccc(Cl)cc2Sc2c(ccc(Cl)c2Cl)O1 (stereo not given) . Value?
Reply text: 0.71

Inquiry: Endpoint output: log10 GI50 of COc1cc(/C=C\c2ccc(Cl)cc2)cc(OC)c1OC . Value?
Reply text: -0.71

Inquiry: Endpoint output: log10 GI50 of O=c1[nH]c2ccc([N+](=O)[O-])c(Cl)c2c2ccccc12 . Value?
Reply text: 0.55

Inquiry: Endpoint output: log10 GI50 of S=C(Nc1ccccc1)Nc1[nH]c(=S)sc1-c1nc2ccccc2[nH]1 . Value?
Reply text: 1.99

Inquiry: Endpoint output: log10 GI50 of COC(=O)CC(NC(=O)OCc1ccccc1)C(C(=O)OCc1ccccc1)C1(C)OCCO1 (stereo not given) . Value?
Reply text: 1.58
